test system: M14 melanoma; test: NCI-60 one-dose screen, 48 h (100 = growth as untreated, 0 = no growth, -100 = all killed); settings: 10 µM unless noted
This is part of a sample that, as a whole, favours compounds with a hit. Of some 83,000 tested, about 20% had one in any assay.
Recorded growth, one value per entry.
endpoint.label: growth (%)

compound: COCc1cnccc1NC1CCCCCC1
measured: 94.2
--
compound: COc1ccccc1/C=C1\Oc2cc(OCCN3CCCC3)ccc2C1=O
measured: 77.2
--
compound: O=C(NO)c1ccc(-n2nc(-c3ccccc3)c3ccccc32)cc1
measured: 57.2
--
compound: O=S(=O)(NCCNc1nccc(-c2c(-c3cccc(F)c3)nc3sccn23)n1)c1ccccc1
measured: 41.4
--
compound: COc1cccc(-c2nc3occn3c2-c2ccnc(NCCCNS(=O)(=O)c3ccc(C(F)(F)F)cc3)n2)c1
measured: 85.6
--
compound: c1ccc2cc(Cn3c(-c4cccc5ccccc45)[n+](Cc4ccc5ccccc5c4)c4c5ccccc5c5ccccc5c43)ccc2c1
measured: -63.5
--
compound: COc1cc2nc(-c3ccc(Cl)cc3)cc(OCCCN3CCC(O)CC3)c2cc1OC
measured: -48
--
compound: CC(C)(C)[Si](C)(C)OC1[C@@H](O[Si](C)(C)C(C)(C)C)[C@@H](CNC(=O)NC(=O)CCl)O[C@H]1n1cnc2c(NC(=O)Nc3ccccc3)ncnc21 (some centres not stated)
measured: -56
--
compound: Oc1cccc(CCc2ccc(Oc3cc(CCc4cccc(O)c4)cc(O)c3O)cc2)c1
measured: 81.2
--
compound: COc1ccc(-c2nc3sccn3c2/C=C/C(=O)c2ccc3c(c2)OCO3)cc1
measured: 103
--
compound: CCCNC(=O)Oc1ccc(/C(=C(\C)c2ccccc2)c2ccc(OCCCN(C)C)cc2)cc1
measured: 25.2
--
compound: COC(=O)CNC(=O)[C@]12CCC(C)(C)C[C@H]1C1=CC[C@@H]3[C@@]4(C)Cc5c([nH]c6ccccc56)C(C)(C)[C@@H]4CC[C@@]3(C)[C@]1(C)CC2
measured: 104
--
compound: COc1ccc(C/C(C)=C(/c2ccc(OCCCN(C)C)cc2)c2ccc(OC(C)=O)cc2)cc1
measured: 50.6
--
compound: C=C1C(=O)O[C@H]2[C@H]1CC/C(COC(=O)NCC(C)c1ccc(CC(C)C)cc1)=C\CC[C@@]1(C)O[C@@H]21 (some centres not stated)
measured: -29.8
--
compound: COc1ccc(C(=O)NNc2nc(Cl)nc(N3CCN(C(c4ccccc4)c4ccccc4)CC3)n2)cc1
measured: 31.3
--
compound: CC(=O)Nc1cccc(-c2ccc3c(c2)NC(=O)/C3=C\c2ccc[nH]2)c1
measured: 39.1
--
compound: COc1cc2c(c(O)c1Br)C(=O)c1c(O)cc(C[C@H](C)O)cc1[C@H]2[C@H]1c2cc(C[C@H](C)O)cc(O)c2C(=O)c2c1cc(OC)c(Br)c2O
measured: 16.5

---

tested on: RXF 393 renal; experiment: NCI-60 one-dose screen, 48 h; settings: 10 µM unless noted
About 83,000 compounds went through this panel and 20% of them were active in at least one assay; those are over-represented in the sample as a whole. The source made the active and inactive calls. Rule for the calls: active = growth percent below 10; inactive = the rest.
Outcome codes: yes (1) for active, no (0) for inactive

compound: CC1(C)CC[C@]2(C(=O)O)CC[C@]3(C)C(=CC[C@@H]4[C@@]5(C)Cc6c([nH]c7ccccc67)C(C)(C)[C@@H]5CC[C@]43C)[C@@H]2C1
target.system: RXF 393 renal
group: no (0)

compound: O=C1C=CC(=O)N1c1cccc(Cl)c1
target.system: RXF 393 renal
group: no (0)

compound: N#Cc1c(NCc2ccccc2I)sc2c1CCCCC2
target.system: RXF 393 renal
group: no (0)

compound: COc1cc(/C=C\c2cc(/C=C\c3ccc(O)c(OC)c3)n(C(=O)COc3ccccc3)n2)ccc1O
target.system: RXF 393 renal
group: yes (1)

compound: COc1cc(/C=C\c2cc(OC)c(OC)c(OC)c2)cc(N)c1OC
target.system: RXF 393 renal
group: no (0)

compound: CC(C)(C)CC(C)(C)n1nnnc1C(NC12CC3CC(CC(C3)C1)C2)c1ccccc1 (configuration not stated)
target.system: RXF 393 renal
group: no (0)

compound: O=C(CNCCN1CCOCC1)N1c2cccc3cccc(c23)N(C(=O)CNCCN2CCOCC2)C1c1cn(-c2ccccc2)nc1-c1cccc([N+](=O)[O-])c1
target.system: RXF 393 renal
group: no (0)

compound: N#Cc1cccc(-c2ccc3c(c2)NC(=O)/C3=C\c2ccc[nH]2)c1
target.system: RXF 393 renal
group: no (0)

compound: C=C1C(=O)O[C@H]2[C@H]1CC/C(CNC(=O)/C=C/c1cccc(OC)c1)=C\CC[C@@]1(C)O[C@@H]21
target.system: RXF 393 renal
group: yes (1)

compound: COc1cc(NCCCCCNC(C)(C)C)c2ncccc2c1
target.system: RXF 393 renal
group: no (0)

compound: O=C1/C=C/[C@@H](O)[C@@H]2C[C@@H](O)C[C@H]2/C=C/CCC[C@H](CCc2ccc3ncccc3c2)O1
target.system: RXF 393 renal
group: yes (1)

compound: COC(=O)C1=C(C(=O)ON)C2C=CC1(C(Cc1ccccc1)Nc1ccccc1)O2 (configuration not stated)
target.system: RXF 393 renal
group: no (0)

compound: OC(c1cccc(C(F)(F)F)c1)c1cnccc1NC1CCCCC1 (configuration not stated)
target.system: RXF 393 renal
group: no (0)

compound: N#C/C(=C\c1ccccn1)c1nc2cc(Cl)ccc2s1
target.system: RXF 393 renal
group: no (0)

compound: Cc1c(C(=O)NCCC(=O)NO)sc2ncnc(Nc3ccc(F)c(Cl)c3)c12
target.system: RXF 393 renal
group: no (0)

compound: CCCCCN1C=C/C(=C\C(=O)N2CCCc3ccccc32)c2ccccc21
target.system: RXF 393 renal
group: no (0)

compound: COc1cc2nc(-c3ccc(C(F)(F)F)cc3)cc(OCCN3CCCCC3)c2cc1OC
target.system: RXF 393 renal
group: no (0)

compound: Cc1nc2sccn2c1-c1cn2ccsc2n1
target.system: RXF 393 renal
group: no (0)

compound: CCc1ccc(-c2cn3ccnc3c(-c3ccc4ncn(Cc5ccccc5)c4c3)n2)cc1
target.system: RXF 393 renal
group: no (0)

compound: NC(=NCc1ccccc1)C(N=Nc1ccccc1)C(=O)NCc1ccccc1 (configuration not stated)
target.system: RXF 393 renal
group: no (0)

compound: CN1CCN(C(=O)[C@]23CCC(C)(C)C[C@H]2C2=CC[C@@H]4[C@@]5(C)C/C(=C/c6cccnc6)C(=O)C(C)(C)[C@@H]5CC[C@@]4(C)[C@]2(C)CC3)CC1
target.system: RXF 393 renal
group: no (0)

compound: C=C(C)[C@@H]1CC[C@]2(C(=O)N3CCN(C)CC3)CC[C@]3(C)[C@H](CC[C@@H]4[C@@]5(C)CC[C@H](OCCC#N)C(C)(C)[C@@H]5CC[C@]43C)[C@@H]12
target.system: RXF 393 renal
group: no (0)

compound: CCOC(=O)c1cc(C(=O)c2ccc(Br)cc2)n2ccc(/C=C/c3cc[n+](CC(=O)c4ccc(OC)cc4)cc3)cc12
target.system: RXF 393 renal
group: no (0)

compound: CCOC(=O)CSc1nc2ccccc2c(=O)n1Cc1ccc(S(N)(=O)=O)cc1
target.system: RXF 393 renal
group: no (0)

compound: COc1cc(-c2csc(NC(=O)c3cc(F)cc(C(F)(F)F)c3)n2)cc(OC)c1OC
target.system: RXF 393 renal
group: no (0)

compound: Cc1cc(Cl)nc(N(CCNc2ccnc3cc(Cl)ccc23)Cc2ccccn2)n1
target.system: RXF 393 renal
group: no (0)

compound: COc1ccc(-c2cnc3c(-c4cccc5ncccc45)cnn3c2)cc1
target.system: RXF 393 renal
group: no (0)

compound: C=CC(=O)N[C@@H](/C=C/C(=O)OCC)Cc1ccc(-c2cc(Cl)cc(Cl)c2)cc1
target.system: RXF 393 renal
group: yes (1)

compound: CN(C)CCC(=O)c1ccc([N+](=O)[O-])cc1
target.system: RXF 393 renal
group: no (0)

compound: CCN(CC)CC[n+]1cc2cc(OC)c(OC)cc2c2ccc3cc4c(cc3c21)OCO4
target.system: RXF 393 renal
group: yes (1)

compound: N#C/C(=C\c1ccc([N+](=O)[O-])s1)c1nc2cc(Br)ccc2s1
target.system: RXF 393 renal
group: yes (1)

compound: C[C@H]1[C@H](C)CC[C@]2(C(=O)Nc3ccc4ncccc4c3)CC[C@]3(C)C(=CC[C@@H]4[C@@]5(C)CCCNC(C)(C)[C@@H]5CC[C@]43C)[C@H]12
target.system: RXF 393 renal
group: yes (1)

compound: O=S(=O)(NCCCNc1nccc(-c2c(-c3cccc(O)c3)nc3occn23)n1)c1ccc(Cl)cc1
target.system: RXF 393 renal
group: no (0)

compound: COc1ccc2c(c1)oc1c(C)c3c(c(C)c12)C(=O)N(CCN1CCOCC1)C3=O
target.system: RXF 393 renal
group: no (0)

compound: COc1ccc2nc(-c3ccc(-c4noc(-c5cc(OC)c(OC)c(OC)c5)n4)cc3)[nH]c2c1
target.system: RXF 393 renal
group: no (0)

compound: Cc1nc2ccc(Cl)cn2c1-c1nnc(SCc2ccc([N+](=O)[O-])cc2)o1
target.system: RXF 393 renal
group: yes (1)

compound: COC(=O)c1ccc2c(c1)[n+](=O)c(C(C)=O)c(C(F)(F)F)n2[O-]
target.system: RXF 393 renal
group: yes (1)

Sourced from PubChem BioAssay (NCI)
